# tgt: Muscarinic acetylcholine receptor M2 (Homo sapiens) (UniProt P08172)
# Sequence (whole entry): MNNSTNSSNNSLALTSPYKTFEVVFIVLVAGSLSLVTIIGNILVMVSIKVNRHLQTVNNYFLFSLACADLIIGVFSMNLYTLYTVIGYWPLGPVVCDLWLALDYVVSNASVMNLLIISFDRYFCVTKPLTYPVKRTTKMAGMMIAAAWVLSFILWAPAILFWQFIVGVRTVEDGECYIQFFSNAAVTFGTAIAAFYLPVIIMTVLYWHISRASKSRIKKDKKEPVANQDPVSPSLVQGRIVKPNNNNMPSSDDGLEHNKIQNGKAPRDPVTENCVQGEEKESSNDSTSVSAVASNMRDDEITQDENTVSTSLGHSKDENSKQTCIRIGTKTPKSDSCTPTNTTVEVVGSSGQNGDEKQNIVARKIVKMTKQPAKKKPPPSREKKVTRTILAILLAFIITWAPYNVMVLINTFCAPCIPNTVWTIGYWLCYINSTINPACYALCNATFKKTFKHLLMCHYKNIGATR
# measurement.notes: Logarithm of affinity (log 1/M) at the muscarinic acetylcholine receptor M2 by using semiquantitative equilibrium and off-rate assay
Entries whose Log 1/M is below 6 take Satisfied; entries at or above 6 take Not satisfied.

# mol, answer.label
measured = [
    ("CC1(C)CC(=O)n2c3cccc(O)c3c3c4c(cc1c32)CNCC4", "Satisfied"),
    ("O=C1CCc2cc3c(c4c5cc(O)ccc5n1c24)CNCC3", "Satisfied"),
    ("O=C1CCc2cc3c(c4c5c(Cl)cccc5n1c24)CCNC3", "Not satisfied"),
]

(Q) Please let me know if COc1cc2c3c4c(cc5c3n(c2cc1OC)C(=O)CC5)CCNC4 shows Log 1/M below 6.
(A) Not satisfied

(Q) Another compound to check: COc1cccc2c1c1c3c(cc4c1n2C(=O)CC4)CNCC3
(A) Not satisfied

(Q) Item: COC(=O)c1ccc2c(c1)c1c3c(cc4c1n2C(=O)CC4)CNCC3
(A) Not satisfied

(Q) Next compound up: O=C(O)c1ccc2c(c1)c1c3c(cc4c1n2C(=O)CC4)CNCC3
(A) Satisfied

(Q) Also O=C1CCc2cc3c(c4c5cc(O)ccc5n1c24)CCNC3 , if possible.
(A) Satisfied

(Q) Let us now turn to COc1cc2c(c(OC)c1OC)c1c3c(cc4c1n2C(=O)CC4)CNCC3
(A) Not satisfied

(Q) Okay, and COc1cccc2c1c1c3c(cc4c1n2C(=O)CC4(C)C)CNCC3 ?
(A) Not satisfied

(Q) Next record, please: N#Cc1ccc2c3c4c(cc5c3n(c2c1)C(=O)CC5)CNCC4
(A) Satisfied

(Q) Can you check COC(=O)c1c2c(c3c4cc(OC)c(OC)cc4n4c3c1CCC4=O)CCNC2 next?
(A) Not satisfied

(Q) Note, next up: O=C1CCc2cc3c(c4c5cc(CN6CCOCC6)ccc5n1c24)CCNC3
(A) Satisfied

(Q) What would you report for O=C1CCc2cc3c(c4c5ccc(Cl)cc5n1c24)CCNC3 ?
(A) Not satisfied

(Q) Next record, please: O=C1CCc2cc3c(c4c5ccccc5n1c24)CCNC3
(A) Satisfied

(Q) What about this compound? COC(=O)c1ccc2c3c4c(cc5c3n(c2c1)C(=O)CC5)CNCC4
(A) Not satisfied

(Q) And for O=C1CCc2cc3c(c4c5cccc(O)c5n1c24)CCNC3 ?
(A) Satisfied

(Q) Request: COc1cc2c3c4c(c(COC(C)=O)c5c3n(c2cc1OC)C(=O)CC5)CNCC4
(A) Not satisfied

(Q) Could you do the same for O=C(c1ccc2c(c1)c1c3c(cc4c1n2C(=O)CC4)CNCC3)N1CCOCC1 , please?
(A) Satisfied

(Q) For COC(=O)c1cccc2c1c1c3c(cc4c1n2C(=O)CC4)CNCC3 then?
(A) Satisfied

###

# tgt: UniProt P20309
# measurement.notes: Subtype selectivity and the cooperativity with N-methyl Scopolamine (NMS) at muscarinic acetylcholine receptor M3; Activity range is 0.2-0.8
test.readout: Cooperativity

# mol, test.readout, measured.value
measured = [
    ("O=C(O)c1ccc2c(c1)c1c3c(cc4c1n2C(=O)CC4)CNCC3", "Cooperativity", 0.8),
    ("COC(=O)c1cccc2c1c1c3c(cc4c1n2C(=O)CC4)CNCC3", "Cooperativity", 0.8),
    ("O=C1CCc2cc3c(c4c5ccccc5n1c24)CNCC3", "Cooperativity", 0.8),
    ("Cc1ccc2c(c1)c1c3c(cc4c1n2C(=O)CC4)CNCC3", "Cooperativity", 0.8),
    ("COC(=O)c1c2c(c3c4cc(OC)c(OC)cc4n4c3c1CCC4=O)CCNC2", "Cooperativity", 0.8),
]

(Q) Form field: reported Cooperativity of COc1ccc2c3c4c(cc5c3n(c2c1)C(=O)CC5)CCNC4
(A) 0.8

(Q) Further, for N#Cc1ccc2c3c4c(cc5c3n(c2c1)C(=O)CC5)CNCC4 ?
(A) 0.8

(Q) Try the compound CC1(C)CC(=O)n2c3ccccc3c3c4c(cc1c32)CCNC4
(A) 0.8

(Q) Input COc1cc2c3c4c(cc5c3n(c2cc1OC)C(=O)CC5(C)C)CCNC4
(A) 0.8

(Q) Input COc1cccc2c3c4c(cc5c3n(c12)C(=O)CC5)CNCC4
(A) 0.8

(Q) Could you do the same for COC(=O)c1ccc2c(c1)c1c3c(cc4c1n2C(=O)CC4)CNCC3 , please?
(A) 0.8

(Q) Continue with COC(=O)c1ccc2c3c4c(cc5c3n(c2c1)C(=O)CC5)CNCC4
(A) 0.8

###

# tgt: Muscarinic acetylcholine receptor M4 (Homo sapiens) (UniProt P08173)
# Sequence (P08173 whole entry): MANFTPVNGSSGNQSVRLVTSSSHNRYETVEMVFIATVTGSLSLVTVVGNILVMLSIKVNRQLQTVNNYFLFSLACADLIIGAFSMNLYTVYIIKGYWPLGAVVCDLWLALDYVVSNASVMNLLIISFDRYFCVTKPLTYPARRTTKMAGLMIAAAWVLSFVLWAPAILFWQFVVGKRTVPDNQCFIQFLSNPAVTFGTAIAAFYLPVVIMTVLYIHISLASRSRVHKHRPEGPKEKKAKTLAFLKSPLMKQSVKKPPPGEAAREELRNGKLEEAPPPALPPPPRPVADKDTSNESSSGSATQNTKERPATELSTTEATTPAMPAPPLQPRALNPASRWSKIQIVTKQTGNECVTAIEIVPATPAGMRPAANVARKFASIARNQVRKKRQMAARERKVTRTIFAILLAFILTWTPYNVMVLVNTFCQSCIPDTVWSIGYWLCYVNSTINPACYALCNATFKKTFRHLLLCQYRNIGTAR
# measurement.notes: Logarithm of affinity (log 1/M) at the muscarinic acetylcholine receptor M4 by using semiquantitative equilibrium and off-rate assay
Label true when Log 1/M >= 5; otherwise false.

# mol, answer.label
records = [
    ("O=C1CCc2cc3c(c4c5cc(O)ccc5n1c24)CNCC3", "true"),
    ("O=C1CCc2cc3c(c4c5cc(CN6CCOCC6)ccc5n1c24)CCNC3", "true"),
    ("COc1cc2c3c4c(cc5c3n(c2cc1OC)C(=O)CC5)CNCC4", "false"),
]

(Q) hey, is Log 1/M for this one >= 5? CC1(C)CC(=O)n2c3cccc(O)c3c3c4c(cc1c32)CNCC4
(A) true

###

# tgt: Muscarinic acetylcholine receptor M3 (Homo sapiens) (UniProt P20309)
# Sequence (P20309 whole entry, looked up): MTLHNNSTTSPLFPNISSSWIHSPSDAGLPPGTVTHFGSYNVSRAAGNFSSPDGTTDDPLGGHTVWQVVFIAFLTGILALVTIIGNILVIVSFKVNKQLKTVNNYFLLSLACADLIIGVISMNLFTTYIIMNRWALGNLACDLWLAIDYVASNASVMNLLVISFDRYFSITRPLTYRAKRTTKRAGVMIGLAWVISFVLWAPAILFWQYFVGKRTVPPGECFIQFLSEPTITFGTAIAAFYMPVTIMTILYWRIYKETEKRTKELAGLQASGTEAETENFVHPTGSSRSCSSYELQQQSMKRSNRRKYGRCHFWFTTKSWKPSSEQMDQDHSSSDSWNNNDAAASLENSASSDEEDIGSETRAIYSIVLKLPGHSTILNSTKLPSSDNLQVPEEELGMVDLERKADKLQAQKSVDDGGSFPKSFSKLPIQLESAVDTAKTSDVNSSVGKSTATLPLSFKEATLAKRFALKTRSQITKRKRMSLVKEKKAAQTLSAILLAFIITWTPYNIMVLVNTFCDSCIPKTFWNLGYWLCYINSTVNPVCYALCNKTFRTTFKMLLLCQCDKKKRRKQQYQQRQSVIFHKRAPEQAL
# measurement.notes: Logarithm of affinity (log 1/M) at the muscarinic acetylcholine receptor M3 by using semiquantitative equilibrium and off-rate assay
test.readout: Log 1/M
Kindly provide the number alone.

Before answering, review these 5 worked examples.
# mol, test.readout, measured.value
rows = [
    ("O=C1CCc2cc3c(c4c5ccc(Cl)cc5n1c24)CCNC3", "Log 1/M", 5.39),
    ("O=C1CCc2cc3c(c4c5c(O)cccc5n1c24)CCNC3", "Log 1/M", 5.43),
    ("O=C1CCc2cc3c(c4c5ccccc5n1c24)CNCC3", "Log 1/M", 5.78),
    ("COC(=O)c1c2c(c3c4cc(OC)c(OC)cc4n4c3c1CCC4=O)CCNC2", "Log 1/M", 5.11),
    ("CC1(C)CC(=O)n2c3cccc(O)c3c3c4c(cc1c32)CNCC4", "Log 1/M", 5.15),
]

(Q) Can you look up the measured Log 1/M of O=C(O)c1ccc2c(c1)c1c3c(cc4c1n2C(=O)CC4)CNCC3 for me?
(A) 4.51

(Q) What do we get for N#Cc1ccc2c3c4c(cc5c3n(c2c1)C(=O)CC5)CNCC4 ?
(A) 5.19

(Q) Param item: O=C1CCc2cc3c(c4c5ccccc5n1c24)CCNC3
(A) 4.88

(Q) And for COc1cccc2c1c1c3c(cc4c1n2C(=O)CC4)CNCC3 ?
(A) 5.58

(Q) Also, COC(=O)c1cccc2c1c1c3c(cc4c1n2C(=O)CC4)CNCC3 please.
(A) 4.98

(Q) # repeat for COC(=O)c1ccc2c3c4c(cc5c3n(c2c1)C(=O)CC5)CNCC4
(A) 5.43

(Q) Again, but for COc1cc2c3c4c(cc5c3n(c2cc1OC)C(=O)CC5)CNCC4
(A) 5.2

(Q) Moving on to COc1cc2c3c4c(cc5c3n(c2cc1OC)C(=O)CC5)CCNC4
(A) 5.19

(Q) Please answer likewise for O=C1CCc2cc3c(c4c5cc(Cl)ccc5n1c24)CCNC3
(A) 5.16

(Q) Next compound up: O=C1CCc2cc3c(c4c5c(Cl)cccc5n1c24)CCNC3
(A) 5.92

(Q) Okay, and COc1cccc2c1c1c3c(cc4c1n2C(=O)CC4(C)C)CNCC3 ?
(A) 4.92

(Q) Also COc1ccc2c(c1)c1c3c(cc4c1n2C(=O)CC4)CCNC3 ?
(A) 5.21

(Q) And what about the compound COc1cc2c3c4c(cc5c3n(c2cc1OC)C(=O)CC5(C)C)CCNC4 ?
(A) 6.03
